The measurements presented in this section are drawn from paper PMC4445693.

assay: Single-dose plasma and skin-tissue pharmacokinetics of daptomycin in rats; assay type: in vivo, rat; settings: male, Wistar, rat, plasma, sc, 50 mg/kg
MEASURED METRIC: Tmax (h)
Please give a number only; it is taken to be in h.

The value of Tmax measured for the compound CCCCCCCCCC(=O)N[C@@H](Cc1c[nH]c2ccccc12)C(=O)N[C@H](CC(N)=O)C(=O)N[C@@H](CC(=O)O)C(=O)N[C@@H]1C(=O)NCC(=O)N[C@@H](CCCN)C(=O)N[C@@H](CC(=O)O)C(=O)N[C@H](C)C(=O)N[C@@H](CC(=O)O)C(=O)NCC(=O)N[C@H](CO)C(=O)N[C@@H]([C@H](C)CC(=O)O)C(=O)N[C@@H](CC(=O)c2ccccc2N)C(=O)O[C@@H]1C turned out to be 3

* * *

assay: Single-dose plasma and skin-tissue pharmacokinetics of daptomycin in rats; type: in vivo, rat; settings: male, Wistar, rat, plasma, sc, 50 mg/kg; SD
MEASURED METRIC: AUC(0-inf) (µg·h/mL)
Please give a number only; it is taken to be in µg·h/mL.

The value of AUC(0-inf) measured for the compound CCCCCCCCCC(=O)N[C@@H](Cc1c[nH]c2ccccc12)C(=O)N[C@H](CC(N)=O)C(=O)N[C@@H](CC(=O)O)C(=O)N[C@@H]1C(=O)NCC(=O)N[C@@H](CCCN)C(=O)N[C@@H](CC(=O)O)C(=O)N[C@H](C)C(=O)N[C@@H](CC(=O)O)C(=O)NCC(=O)N[C@H](CO)C(=O)N[C@@H]([C@H](C)CC(=O)O)C(=O)N[C@@H](CC(=O)c2ccccc2N)C(=O)O[C@@H]1C turned out to be 812

* * *

assay: Single-dose plasma and skin-tissue pharmacokinetics of daptomycin in rats; type: in vivo, rat; conditions: male, Wistar, rat, plasma, sc, 50 mg/kg; SD
MEASURED METRIC: Cmax (µg/mL)
Please give a number only; it is taken to be in µg/mL.

The value of Cmax measured for the molecule CCCCCCCCCC(=O)N[C@@H](Cc1c[nH]c2ccccc12)C(=O)N[C@H](CC(N)=O)C(=O)N[C@@H](CC(=O)O)C(=O)N[C@@H]1C(=O)NCC(=O)N[C@@H](CCCN)C(=O)N[C@@H](CC(=O)O)C(=O)N[C@H](C)C(=O)N[C@@H](CC(=O)O)C(=O)NCC(=O)N[C@H](CO)C(=O)N[C@@H]([C@H](C)CC(=O)O)C(=O)N[C@@H](CC(=O)c2ccccc2N)C(=O)O[C@@H]1C turned out to be 176

* * *

experiment: Single-dose plasma and skin-tissue pharmacokinetics of daptomycin in rats; format: in vivo, rat; conditions: male, Wistar, rat, plasma, sc, 50 mg/kg; SD
MEASURED METRIC: MRT (h)
Please give a number only; it is taken to be in h.

The value of MRT measured for the compound CCCCCCCCCC(=O)N[C@@H](Cc1c[nH]c2ccccc12)C(=O)N[C@H](CC(N)=O)C(=O)N[C@@H](CC(=O)O)C(=O)N[C@@H]1C(=O)NCC(=O)N[C@@H](CCCN)C(=O)N[C@@H](CC(=O)O)C(=O)N[C@H](C)C(=O)N[C@@H](CC(=O)O)C(=O)NCC(=O)N[C@H](CO)C(=O)N[C@@H]([C@H](C)CC(=O)O)C(=O)N[C@@H](CC(=O)c2ccccc2N)C(=O)O[C@@H]1C turned out to be 2.28
